Target: recombinant human PMYT-1 (Myt1 kinase) (Homo sapiens)
Construct: full length PMYT-1 was expressed by baculovirus in insect cells using a N-terminal GST tag
Sequence (Q99640 1-499): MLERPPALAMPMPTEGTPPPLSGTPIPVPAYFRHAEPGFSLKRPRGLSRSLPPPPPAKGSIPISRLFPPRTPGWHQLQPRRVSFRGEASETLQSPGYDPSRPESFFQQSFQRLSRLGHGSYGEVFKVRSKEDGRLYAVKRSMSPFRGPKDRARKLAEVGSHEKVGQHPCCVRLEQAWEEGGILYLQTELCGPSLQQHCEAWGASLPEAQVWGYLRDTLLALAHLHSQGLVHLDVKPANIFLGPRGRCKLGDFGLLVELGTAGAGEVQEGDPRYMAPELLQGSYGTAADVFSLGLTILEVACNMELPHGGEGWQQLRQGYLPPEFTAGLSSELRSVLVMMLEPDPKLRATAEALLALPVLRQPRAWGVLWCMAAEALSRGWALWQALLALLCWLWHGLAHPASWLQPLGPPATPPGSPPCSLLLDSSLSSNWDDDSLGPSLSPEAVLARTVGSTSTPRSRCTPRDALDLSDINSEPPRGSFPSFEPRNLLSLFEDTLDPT
Experiment: LanthaScreen Europium (Eu) Kinase Binding Assay for Myt1 kinase
Conditions: TR-FRET tracer 178 displacement, GST-tagged full length PMYT-1, 60 min, room temperature; mean IC50; read-out: LANTHA Kinase Binding for PMyt1
measurement_name: IC50

# input_smiles, measurement_name, experimental_value
data = [
    ("Cc1ccc(O)c(C)c1-n1nc(-c2ncco2)c(C(N)=O)c1N", "IC50", "≤ 10 nM"),
]

I looked up `Cc1ccc(O)c(C)c1-n1nc(-c2ccccc2)c(C(N)=O)c1N` and its IC50 for recombinant human PMYT-1 (Myt1 kinase) (Homo sapiens) was 10 to 100 nM

Tested system recombinant human PMYT-1 (Myt1 kinase) (Homo sapiens); IC50 recorded for `COc1ccc(S(=O)(=O)O)cc1-c1nn(-c2c(C)ccc(O)c2C)c(N)c1C(N)=O` was > 250 nM

###

Target: recombinant human PMYT-1 (Myt1 kinase) (Homo sapiens)
Construct: full length PMYT-1 was expressed by baculovirus in insect cells using a N-terminal GST tag
Assay: LanthaScreen Europium (Eu) Kinase Binding Assay for Myt1 kinase
Details: TR-FRET tracer 178 displacement, GST-tagged full length PMYT-1, 60 min, room temperature; mean IC50; read-out: LANTHA Kinase Binding for PMyt1
pIC50: −log10 of the molar value.
Examples of compounds with documented pIC50 follow.

Guide cases for pIC50, answers given:
# compound, pIC50
measured = [
    ("Cc1ccc(O)cc1-n1nc(-c2ccccc2)c(C(N)=O)c1N [Compound 1]", "6.60 to 7.00"),
    ("Cc1ccc(O)c(C)c1-n1nc(-c2ccccc2F)c(C(N)=O)c1N [Compound 65]", "7.00 to 8.00"),
    ("Cc1cc(Cl)c(O)c(C)c1-n1nc(-c2ccc(Br)o2)c(C(N)=O)c1N [Compound 74]", "7.00 to 8.00"),
    ("Cc1ccc(O)c(C)c1-n1nc(-c2nccs2)c(C(N)=O)c1N [Compound 122]", "≥ 8.00"),
    ("Cc1ccc(O)c(C)c1-n1nc(-c2cc(C(C)C)co2)c(C(N)=O)c1N [Compound 102]", "≥ 8.00"),
]

// pIC50 lookup, compound = Cc1ccc(O)c(C)c1-n1nc(-c2ccc(-c3ccncc3)o2)c(C(N)=O)c1N [Compound 99] , result: ≥ 8.00

Form field pIC50, entry Cc1ccc(O)c(C)c1-n1nc(-c2ccco2)c(C(N)=O)c1N (single isomer, unassigned) [Compound 104] : ≥ 8.00
